Test system: C. glabrata ATCC 90030
Assay: Antifungal MIC assay (broth microdilution in YNB)
Assay type: cell-based, Candida glabrata
Details: Nakaseomyces glabratus, ATCC90030; range of MICs, n=8; 35 °C, 36 h, visual; read-out: MIC C. glabrata ATCC 90030
Each entry below lists one item and its recorded MIC value.

Examples from the recorded data:
Request: Return reported MIC; argument: CC(/C=C(\O)C(F)(F)F)=N\CC/N=C(C)/C=C(\O)C(F)(F)F [Compound L2]
Result: > 100 µM

Request: Sample Oc1c(F)cccc1/C=N/CC/N=C/c1cccc(F)c1O [Compound L3] — what was its MIC?
Result: > 100 µM

Request: Item OC(Cn1cncn1)(Cn1cncn1)c1ccc(F)cc1F [FCZ, Fluconazole, reference compound] has what recorded MIC?
Result: > 209 µM

Request: Given the entry CC(=O)N1CCN(c2ccc(OCC3COC(Cn4ccnc4)(c4ccc(Cl)cc4Cl)O3)cc2)CC1 (centres unmarked) [KCZ, Ketoconazole, reference compound] , report its measured MIC.
Result: 60.2 µM

Continue with the next compound.
Request: What value of MIC has been recorded for this entry: CC(=N\NC(N)=S)/C(C)=N/NC(N)=S [Compound L1]
Result: > 100 µM

====

Test system: C. auris CBS 12373
Assay: Antifungal MIC assay (broth microdilution in YNB)
Assay type: cell-based, Candida auris
Details: Candidozyma auris, CBS12373; range of MICs, n=8; 35 °C, 36 h, visual; read-out: MIC C. auris CBS 12373
Recorded MIC by entry
Only the number, expressed in µM, is required.

Request: Suppose we examine the compound CC(=O)N1CCN(c2ccc(OCC3COC(Cn4ccnc4)(c4ccc(Cl)cc4Cl)O3)cc2)CC1 (centres unmarked) [KCZ, Ketoconazole, reference compound] ; what MIC value has been reported?
Result: 3.76

# next compound below
Request: Record request: MIC value, item Oc1c(F)cccc1/C=N/CC/N=C/c1cccc(F)c1O
Result: 100

====

System: C. deuterogattii CBS 7750
Assay: Antifungal MIC assay (broth microdilution in YNB)
Format: cell-based, Cryptococcus deuterogattii
Conditions: Cryptococcus deuterogattii, CBS7750; range of MICs, n=8; 35 °C, 36 h, visual; read-out: MIC C. deuterogattii CBS 7750
# key: entry, value: MIC

Example cases with answers are listed next.
Request: Fill in: MIC of Oc1c(F)cccc1/C=N/CC/N=C/c1cccc(F)c1O is ___
Result: > 100 µM

Request: Any idea what its MIC is? The compound is CC(=O)N1CCN(c2ccc(OCC3COC(Cn4ccnc4)(c4ccc(Cl)cc4Cl)O3)cc2)CC1 (centres unmarked) [KCZ, Ketoconazole, reference compound]
Result: 0.94 to 1.88 µM

Request: Any idea what MIC was measured for CC(=N\NC(N)=S)/C(C)=N/NC(N)=S ?
Result: > 100 µM

Request: Look up MIC for this compound: CC(/C=C(\O)C(F)(F)F)=N\CC/N=C(C)/C=C(\O)C(F)(F)F
Result: > 100 µM

Next item in the queue.
Request: I am curious: what MIC value has been reported for OC(Cn1cncn1)(Cn1cncn1)c1ccc(F)cc1F [FCZ, Fluconazole, reference compound] ?
Result: 26.1 µM

====

# maps each entry to its MIC
Test system: C. deuterogattii ATCC 32609
Test: Antifungal MIC assay (broth microdilution in YNB)
Type: cell-based, Cryptococcus deuterogattii
Conditions: Cryptococcus deuterogattii, ATCC32609; Table S1; read-out: MIC Cryptococcus deuterogattii ATCC 32609

In the examples that follow, each entry is paired with its recorded MIC.
Request: Write down the reported MIC of OC(Cn1cncn1)(Cn1cncn1)c1ccc(F)cc1F [FCZ, Fluconazole, reference compound] , test system: C. deuterogattii ATCC 32609.
Result: 8 to 16 µg/mL

Request: C. deuterogattii ATCC 32609 / MIC / Oc1c(F)cccc1/C=N/CC/N=C/c1cccc(F)c1O : value?
Result: > 30.4 µg/mL

Request: Tell me reported MIC for CC(/C=C(\O)C(F)(F)F)=N\CC/N=C(C)/C=C(\O)C(F)(F)F , tested with C. deuterogattii ATCC 32609.
Result: > 33.2 µg/mL

Request: Provide value of MIC for this record tested with C. deuterogattii ATCC 32609: CC(=N\NC(N)=S)/C(C)=N/NC(N)=S
Result: > 23.2 µg/mL

***
Request: Hi! What's the reported MIC for CC(=O)N1CCN(c2ccc(OCC3COC(Cn4ccnc4)(c4ccc(Cl)cc4Cl)O3)cc2)CC1 (centres unmarked) [KCZ, Ketoconazole, reference compound] on C. deuterogattii ATCC 32609?
Result: 1 µg/mL

====

Experiment: Cytotoxicity assay (resazurin)
Format: cell-based, human
Settings: human, HEK293 cells (ATCC CRL-1573); 20 h incubation, 0.8–100 μM; read-out: Tox CC50 (cytotoxicity against HEK293 cells)
Experimental: Cytotoxicity assay: HEK293 ATCC CRL‐1573 human embryonic kidney cells suspended in DMEM media (Gibco; 11330332) supplemented with 10 % FBS (GE; SH30084.03) and 100 U mL^−1 each penicillin/streptomycin (Invitrogen; 15070063) were counted manually in a Neubauer haemocytometer and seeded into 384‐well, black wall, clear bottom tissue culture plates (Corning; Cat. No. 3712) at 5000 cells per well in a volume of 20 μL. […]
Reported CC50 at 20 h values for the following compounds.

Some solved cases for reference:
Request: Form field: reported CC50 at 20 h of Oc1c(F)cccc1/C=N/CC/N=C/c1cccc(F)c1O
Result: > 100 µM

Request: Please give the measured CC50 at 20 h for this compound: CC(=N\NC(N)=S)/C(C)=N/NC(N)=S
Result: > 100 µM

Alright, here's another compound for you.
Request: // CC50 at 20 h lookup, key: CC(/C=C(\O)C(F)(F)F)=N\CC/N=C(C)/C=C(\O)C(F)(F)F
Result: > 100 µM

====

Tested on: C. auris CBS 12373
Test: Antifungal MIC assay (broth microdilution in YNB)
Format: cell-based, Candida auris
Conditions: Candidozyma auris, CBS12373; Table S1; read-out: MIC Candida auris CBS 12373
Test readout: MIC

Request: # get_value(readout='MIC', item= Oc1c(F)cccc1/C=N/CC/N=C/c1cccc(F)c1O )
Result: > 30.4 mg/L

Request: Can you look up the measured MIC of CC(=N\NC(N)=S)/C(C)=N/NC(N)=S for me?
Result: > 23.2 mg/L

Request: Recorded MIC for CC(/C=C(\O)C(F)(F)F)=N\CC/N=C(C)/C=C(\O)C(F)(F)F , please?
Result: > 33.2 mg/L

Request: Need MIC, item OC(Cn1cncn1)(Cn1cncn1)c1ccc(F)cc1F [FCZ, Fluconazole, reference compound]
Result: > 64 mg/L

Field: next compound
Request: Form field: reported MIC of CC(=O)N1CCN(c2ccc(OCC3COC(Cn4ccnc4)(c4ccc(Cl)cc4Cl)O3)cc2)CC1 (centres unmarked) [KCZ, Ketoconazole, reference compound]
Result: 2 mg/L

====

Tested on: C. neoformans ATCC 208821
Assay: Antifungal MIC assay (broth microdilution in YNB)
Type: cell-based, Cryptococcus neoformans
Settings: Cryptococcus neoformans, ATCC208821; range of MICs, n=8; 35 °C, 36 h, visual; read-out: MIC C. neoformans ATCC 208821
Test readout: MIC (µM)
Write it as a number; the unit µM goes unstated.

Request: Which MIC is reported for this compound? OC(Cn1cncn1)(Cn1cncn1)c1ccc(F)cc1F [FCZ, Fluconazole, reference compound]
Result: 52.2

Consider now this further compound.
Request: Any idea what its MIC is? The compound is Oc1c(F)cccc1/C=N/CC/N=C/c1cccc(F)c1O
Result: 100

====

System: C. auris CBS 12373
Test: Antifungal MIC assay (broth microdilution in YNB)
Assay type: cell-based, Candida auris
Settings: Candidozyma auris, CBS12373; range of MICs, n=8; 35 °C, 36 h, visual; read-out: MIC C. auris CBS 12373
Description: Yeast strains: Candida albicans (ATCC 90028, NCCLS 11), Cryptococcus neoformans (ATCC 208821, H99 type strain), Candida tropicalis (ATCC 750, type strain), Candida glabrata (ATCC 90030, NCCLS 84) and Cryptococcus deuterogattii (ATCC 32609, type strain) were obtained from the American Type Culture Collection (ATCC). […] Growth inhibition of all strains was determined visually where the MIC was recorded as the lowest compound concentration with no visible growth. […]
Test readout: MIC

Request: Data request, read-out MIC, for CC(=N\NC(N)=S)/C(C)=N/NC(N)=S [Compound L1]
Result: > 100 µM

Request: I am curious: what MIC value has been reported for CC(/C=C(\O)C(F)(F)F)=N\CC/N=C(C)/C=C(\O)C(F)(F)F [Compound L2] ?
Result: > 100 µM

// switching to the query compound
Request: Give the measured MIC of OC(Cn1cncn1)(Cn1cncn1)c1ccc(F)cc1F [FCZ, Fluconazole, reference compound] .
Result: > 209 µM
